- testTarget: T1, CD137-hisFc fusion protein (Sino Biological Cat 10041-H03H) (human, UniProt Q07011 24-186)
- T1 construct: Bought; also called recombinant human CD137 (fused with human Fc and His tag); not shown: His tag and human Fc
- assayInfo: BLI Octet, Fab
reportedEndpoint: pKd
Scale explanation: pKd corresponds to minus log10 of a concentration expressed in moles per litre.

Example cases with answers are listed next.
>>> valueobserved("Fab 5359 (Fab, V domains shown, Fab from E. coli; also called VH27/VL27) VH: EVQLVESGGGLVQPGGSLRLSCAASGFSLSTSGVGVGWIRQAPGKGLEWLALIDWADDKYYSPSLKSRLTISRDNSKNTLYLQLNSLRAEDTAVYYCARGGSDAVLGDWFAYWGQGTLVTVSS VL: DIQLTQSPSSLSASVGDRVTITCRASQGIGSYLAWYQQKPGKAPKLLIYDASNLETGVPSRFSGSGSGTDFTLTISSLQPEDFATYYCQQGYSIWTFGQGTKVEIKR")
9.15
>>> valueobserved("Fab 5323 (Fab, V domains shown, Fab from E. coli; also called VH19/VL19) VH: EVQLVESGGGLVQPGGSLRLSCAASGFSLSTSGVGVGWIRQAPGKGLEWIGEIYHSGSTYYSPSLKSRVTISRDNSKNTLYLQLNSLKAEDTAVYYCAREGSDVVTGDWFAYWGQGTLVTVSS VL: DIQLTQSPSSLSASVGDRVTITCRASQGISSVLAWYQQKPGKAPKLLIYDASSLESGVPSRFSGSGSGTDFTLTISSLQPEDFATYYCQQGYSLWTFGQGTKVEIKR")
7.98
>>> valueobserved("Fab 7097 (Fab, V domains shown, Fab from E. coli; also called VH49/VL49) VH: EVQLVESGGGLVQPGGSLRLSCAASGYSISSGHHWDWIRQAPGKGLEWVSYISGAGDTTYYADSVKGRFTISRDNSKNTLYLQLNSLRAEDTAVYYCAREGSDAVLGDWFAYWGQGTLVTVSS VL: DIQLTQSPSSLSASVGDRVTITCRASQGISSYLAWYQQKPGKAPKLLIYDASNLETGVPSRFSGSGSGTDFTLTISSLQPEDFATYYCQQYYSTPLTFGQGTKVEIKR")
7.61
>>> valueobserved("Fab 7120 (Fab, V domains shown, Fab from E. coli; also called VH53/VL53) VH: EVQLVESGGGLVQPGGSLRLSCAASGFSLSTSGVGVGWIRQAPGKGLEWVSYISGDGDTTYYADSVKGRFTISRDNSKNTLYLQLNSLRAEDTAVYYCAREGSTTVLGDWFAYWGQGTLVTVSS VL: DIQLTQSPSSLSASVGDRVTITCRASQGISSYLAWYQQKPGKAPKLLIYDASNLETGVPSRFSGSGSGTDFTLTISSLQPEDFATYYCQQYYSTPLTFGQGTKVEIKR")
7.46

GET /values?readout=pKd&item= Fab 5349 (Fab, V domains shown, Fab from E. coli; also called VH24/VL24) VH: EVQLVESGGGLVQPGGSLRLSCAASGYSITSGHYWAWIRQAPGKGLEWVSAISGSGSSTYYADSVKGRFTISRDNSKNTLYLQLNSLRAEDTAVYYCARGGSDTVLGDWFAYWGQGTLVTVSS VL: DIQLTQSPSSLSASVGDRVTITCRASQGISSSLAWYQQKPGKAPKLLIYDASNLETGVPSRFSGSGSGTDFTLTISSLQPEDFATYYCQQGYSTWTFGQGTKVEIKR
8.21

GET /values?readout=pKd&item= Fab 7092 (Fab, V domains shown, Fab from E. coli; also called VH48/VL48) VH: EVQLVESGGGLVQPGGSLRLSCAASGFSLSTSGMGVGWIRQAPGKGLEWVSYISGYGGTTYYADSVKGRFTISRDNSKNTLYLQLNSLRAEDTAVYYCAREGSDVVAGDWFAYWGQGTLVTVSS VL: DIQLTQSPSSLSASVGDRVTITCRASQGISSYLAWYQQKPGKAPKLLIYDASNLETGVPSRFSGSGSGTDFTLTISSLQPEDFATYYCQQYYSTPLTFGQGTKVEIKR
7.34

GET /values?readout=pKd&item= Fab 7081 (Fab, V domains shown, Fab from E. coli; also called VH44/VL44) VH: EVQLVESGGGLVQPGGSLRLSCAASGFSLSTGGVGVGWIRQAPGKGLEWVSYISGAGGTTYYADSVKGRFTISRDNSKNTLYLQLNSLRAEDTAVYYCAREGSDAVLGDWFAYWGQGTLVTVSS VL: DIQLTQSPSSLSASVGDRVTITCRASQGISSYLAWYQQKPGKAPKLLIYDASNLETGVPSRFSGSGSGTDFTLTISSLQPEDFATYYCQQYYTTPLTFGQGTKVEIKR
7.37

GET /values?readout=pKd&item= Fab 5417 (Fab, V domains shown, Fab from E. coli; also called VH39/VL39) VH: EVQLVESGGGLVQPGGSLRLSCAASGFSLSTSGVGVAWIRQAPGKGLEWVSSISGAGGTTYYADSVKGRFTISRDNSKNTLYLQLNSLRAEDTAVYYCARGGSTAVTGDWFDYWGQGTLVTVSS VL: DIQLTQSPSSLSASVGDRVTITCRASQGISPYLAWYQQKPGKAPKLLIYDASNRATGIPSRFSGSGSGTDFTLTISSLQPEDFATYYCQQGYSLWTFGQGTKVEIKR
7.39

GET /values?readout=pKd&item= Fab 5310 (Fab, V domains shown, Fab from E. coli; also called VH15/VL15) VH: EVQLVESGGGLVQPGGSLRLSCAASGFSLSTSGVGVGWIRQAPGKGLEWLALIDWDDDKYYSPSLKSRLTISRDNSKNTLYLQLNSLRAEDTAVYYCARGGSDTVLGDWFAYWGQGTLVTVSS VL: DIQLTQSPSSLSASVGDRVTITCRASQSVSPYLAWYQQKPGKAPKLLIYDASSLESGVPSRFSGSGSGTDFTLTISSLQPEDFATYYCQQGYSLWTFGQGTKVEIKR
8.24

GET /values?readout=pKd&item= Fab 7135 (Fab, V domains shown, Fab from E. coli; also called VH57/VL57) VH: EVQLVESGGGLVQPGGSLRLSCAASGFSLSTGGVGVGWIRQAPGKGLEWVSSISGSGGSTYYADSVKGRFTISRDNSKNTLYLQLNSLRAEDTAVYYCAREGSDTVLGDWFAYWGQGTLVTVSS VL: DIQLTQSPSSLSASVGDRVTITCRASQGVSSYLAWYQQKPGKAPKLLIYDASNLETGVPSRFSGSGSGTDFTLTISSLQPEDFATYYCQQYYTTPLTFGQGTKVEIKR
7.50
